Sourced from patent US20030114402A1

# Target entity: DCMTase (Mus musculus)
# Construct: DCMTase was purified from mouse erythroleukemia cells as previously described; endogenous in cells; host or cells: mouse erythroleukemia (MEL) cells; enzyme purified from them
# Sequence (P13864 whole entry): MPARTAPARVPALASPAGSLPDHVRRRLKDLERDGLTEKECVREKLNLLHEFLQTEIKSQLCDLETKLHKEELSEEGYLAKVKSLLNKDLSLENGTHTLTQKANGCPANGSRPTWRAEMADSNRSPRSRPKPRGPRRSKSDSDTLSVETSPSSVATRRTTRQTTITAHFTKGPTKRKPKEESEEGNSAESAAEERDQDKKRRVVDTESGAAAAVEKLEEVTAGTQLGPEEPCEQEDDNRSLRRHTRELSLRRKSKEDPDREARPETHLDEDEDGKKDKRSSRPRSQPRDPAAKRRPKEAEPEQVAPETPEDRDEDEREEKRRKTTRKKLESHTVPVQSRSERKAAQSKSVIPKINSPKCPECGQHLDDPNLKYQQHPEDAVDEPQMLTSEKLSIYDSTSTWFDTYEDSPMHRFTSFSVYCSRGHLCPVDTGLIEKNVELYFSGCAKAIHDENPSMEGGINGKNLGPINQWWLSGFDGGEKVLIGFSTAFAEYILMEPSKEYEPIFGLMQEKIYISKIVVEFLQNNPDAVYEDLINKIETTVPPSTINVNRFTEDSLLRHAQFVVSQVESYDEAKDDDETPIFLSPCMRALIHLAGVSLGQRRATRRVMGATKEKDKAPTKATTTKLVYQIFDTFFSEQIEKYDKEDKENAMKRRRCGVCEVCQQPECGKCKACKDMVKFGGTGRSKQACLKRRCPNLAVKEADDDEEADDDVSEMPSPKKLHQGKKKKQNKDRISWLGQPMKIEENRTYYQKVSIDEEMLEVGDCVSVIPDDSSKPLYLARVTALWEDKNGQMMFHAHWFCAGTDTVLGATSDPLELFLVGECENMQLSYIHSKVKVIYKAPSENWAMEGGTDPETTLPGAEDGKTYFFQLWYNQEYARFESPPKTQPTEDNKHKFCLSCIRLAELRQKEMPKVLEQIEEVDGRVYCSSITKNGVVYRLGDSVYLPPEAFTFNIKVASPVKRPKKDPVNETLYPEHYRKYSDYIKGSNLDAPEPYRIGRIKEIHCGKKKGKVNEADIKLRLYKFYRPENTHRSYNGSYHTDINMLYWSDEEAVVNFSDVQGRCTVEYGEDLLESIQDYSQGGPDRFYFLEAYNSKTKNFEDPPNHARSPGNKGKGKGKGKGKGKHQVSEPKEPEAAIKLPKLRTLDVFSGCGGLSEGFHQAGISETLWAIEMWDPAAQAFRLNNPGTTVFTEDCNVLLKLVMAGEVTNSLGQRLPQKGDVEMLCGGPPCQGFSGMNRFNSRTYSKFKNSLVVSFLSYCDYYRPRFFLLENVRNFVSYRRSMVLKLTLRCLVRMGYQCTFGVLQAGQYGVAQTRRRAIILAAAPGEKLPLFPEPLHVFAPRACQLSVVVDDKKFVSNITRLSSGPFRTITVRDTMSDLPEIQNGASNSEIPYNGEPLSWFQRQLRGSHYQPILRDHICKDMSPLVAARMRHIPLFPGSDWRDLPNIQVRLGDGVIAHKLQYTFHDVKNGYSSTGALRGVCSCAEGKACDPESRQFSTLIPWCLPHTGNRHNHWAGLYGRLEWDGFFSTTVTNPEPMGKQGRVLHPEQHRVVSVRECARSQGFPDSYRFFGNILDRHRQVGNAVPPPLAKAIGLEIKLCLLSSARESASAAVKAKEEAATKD
# Protocol notes: Dead-end inhibition of poly(dI.dC:dI.dC) methylation by single-stranded DNA
# Type: biochemical
# Applied conditions: Kii and Kis; read-out: the two inhibition constants in agreement
[5mC] = 5-methylcytosine
Measured attribute: Ki

Query string: Look up Ki: 5′-CTGGATCCTTGCCC^mCGCCCCTTGAATTCCC-3′ (DNA CTGGATCCTTGCCCCGCCCCTTGAATTCCC; DNA, [5mC] at 15, backbone not given here) [GC-box b^MET]
Result string: ~20 nM
